The molecules below have reported pKd for Tyrosine-protein kinase JAK2 (Homo sapiens, UniProt O60674).
Positions of bridges follow the written chain, without caps; N, C: chain ends. Non-standard residues stand in square brackets, D forms with d. Residues, ends and D or L forms follow the SMILES beside them. *: point of attachment. 1Nal = N[C@@H](Cc1cccc2ccccc12)C(=O)O; hArg = N=C(N)NCCCC[C@H](N)C(=O)O; Cit = NC(=O)NCCC[C@H](N)C(=O)O; Orn = NCCC[C@H](N)C(=O)O; Acm = CC(=O)NC*
Note on pKd: it is the negative log10 of concentration, concentration in mol/L.

CC(=O)NCSC[C@@H]1NC(=O)[C@H]([C@@H](C)O)NC(=O)[C@@H](NC(C)=O)CC(=O)NCCCC[C@@H](C(=O)N[C@@H](Cc2c[nH]cn2)C(=O)O)NC(=O)[C@H](CCCNC(=N)N)NC(=O)[C@H](Cc2cccc3ccccc23)NC(=O)[C@H]([C@@H](C)O)NC(=O)[C@H](CCCN)NC(=O)[C@H](CCCNC(=N)N)NC1=O (Ac-DTC(Acm)R[Orn]T[1Nal]RKH-OH; lactam 1-9) ... 4.49

Kindly consider the entry below.
// pKd lookup, key: CC(=O)NCSC[C@@H]1NC(=O)[C@H]([C@@H](C)O)NC(=O)[C@@H](NC(C)=O)CC(=O)NCCCC[C@@H](C(=O)N[C@@H](Cc2c[nH]cn2)C(=O)O)NC(=O)[C@H](CCCCNC(=N)N)NC(=O)[C@H](Cc2cccc3ccccc23)NC(=O)[C@H]([C@@H](C)O)NC(=O)[C@H](CCCNC(N)=O)NC(=O)[C@H](CCCNC(=N)N)NC1=O (Ac-DTC(Acm)R[Cit]T[1Nal][hArg]KH-OH; lactam 1-9)
4.51

====

Positions of bridges follow the written chain, without caps; N, C: chain ends. Non-standard residues stand in square brackets, D forms with d. Residues, ends and D or L forms follow the SMILES beside them. *: point of attachment. 1Nal = N[C@@H](Cc1cccc2ccccc12)C(=O)O; Ac5c = NC1(C(=O)O)CCCC1; Acm = CC(=O)NC*
The molecules below have reported Kd for Tyrosine-protein kinase JAK2 (Homo sapiens).
The reply should contain only the number, in µM.

CC(=O)NCSC[C@@H]1NC(=O)[C@H]([C@@H](C)O)NC(=O)[C@@H](NC(C)=O)CC(=O)NCCCC[C@@H](C(=O)N[C@@H](Cc2c[nH]cn2)C(=O)O)NC(=O)[C@H](CCCNC(=N)N)NC(=O)[C@H](Cc2cccc3ccccc23)NC(=O)C2(CCCC2)NC(=O)[C@H](CCC(N)=O)NC(=O)[C@H](CCCNC(=N)N)NC1=O (Ac-DTC(Acm)RQ[Ac5c][1Nal]RKH-OH; lactam 1-9) ... 120

Kindly consider the entry below.
// Kd lookup, key: CC(=O)NCSC[C@@H]1NC(=O)[C@H]([C@@H](C)O)NC(=O)[C@@H](NC(C)=O)CCCCNC(=O)C[C@@H](C(=O)N[C@@H](Cc2c[nH]cn2)C(=O)O)NC(=O)[C@H](CCCNC(=N)N)NC(=O)[C@H](Cc2cccc3ccccc23)NC(=O)[C@H]([C@@H](C)O)NC(=O)[C@H](CCC(N)=O)NC(=O)[C@H](CCCNC(=N)N)NC1=O (Ac-KTC(Acm)RQT[1Nal]RDH-OH; lactam 1-9)
160

====

molecular target: UniProt O60674
Positions of bridges follow the written chain, without caps; N, C: chain ends. Non-standard residues stand in square brackets, D forms with d. Residues, ends and D or L forms follow the SMILES beside them. *: point of attachment. 1Nal = N[C@@H](Cc1cccc2ccccc12)C(=O)O; Cit = NC(=O)NCCC[C@H](N)C(=O)O; Ac5c = NC1(C(=O)O)CCCC1; Dap = NC[C@H](N)C(=O)O; Acm = CC(=O)NC*
Form field: pKd (one value per entry).
Note on pKd: it is the negative log10 of concentration, concentration in mol/L.

CC(=O)NCSC[C@@H]1NC(=O)[C@H]([C@@H](C)O)NC(=O)[C@@H](NC(C)=O)CCC(=O)NC[C@@H](C(=O)N[C@@H](Cc2c[nH]cn2)C(=O)O)NC(=O)[C@H](CCCNC(=N)N)NC(=O)[C@H](Cc2cccc3ccccc23)NC(=O)[C@H]([C@@H](C)O)NC(=O)[C@H](CCC(N)=O)NC(=O)[C@H](CCCNC(=N)N)NC1=O (Ac-ETC(Acm)RQT[1Nal]R[Dap]H-OH; lactam 1-9) ... 4.15
CC(=O)NCSC[C@@H]1NC(=O)[C@H]([C@@H](C)O)NC(=O)[C@@H](NC(C)=O)CC(=O)NCCCC[C@@H](C(=O)N[C@@H](Cc2c[nH]cn2)C(=O)O)NC(=O)[C@H](CCCNC(=N)N)NC(=O)[C@H](Cc2cccc3ccccc23)NC(=O)[C@H]([C@@H](C)O)NC(=O)[C@H](CCCNC(N)=O)NC(=O)[C@H](CCCNC(=N)N)NC1=O (Ac-DTC(Acm)R[Cit]T[1Nal]RKH-OH; lactam 1-9) ... 4.44

// pKd lookup, key: CC(=O)NCSC[C@@H]1NC(=O)C2(CCCC2)NC(=O)[C@@H](NC(C)=O)CC(=O)NCCCC[C@@H](C(=O)N[C@@H](Cc2c[nH]cn2)C(=O)O)NC(=O)[C@H](CCCNC(=N)N)NC(=O)[C@H](Cc2cccc3ccccc23)NC(=O)[C@H]([C@@H](C)O)NC(=O)[C@H](CCC(N)=O)NC(=O)[C@H](CCCNC(=N)N)NC1=O (Ac-D[Ac5c]C(Acm)RQT[1Nal]RKH-OH; lactam 1-9)
3.59

Data provenance is ChEMBL document CHEMBL5352432.
